# Test system: PIM3;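 further: KINOMEscan kinase panel screen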
# CONDITION: concentration: 1 μM, replicates: in singlicate; n = 1
Exercise: state measured %Inh for each of the molecules provided.
One number for each entry, in %.

Batch of 8 molecules: report %Inh for each.
1. Cc1ccccc1COc1cc(-n2cnc3cc(Cl)ccc32)sc1C(N)=O
2. CCCC(=O)Nc1n[nH]c2ncc(-c3cccc4ccccc34)cc12
3. COc1cc2ncn(-c3cc(OCCCc4ccccc4)c(C(N)=O)s3)c2cc1OC
4. Nc1nc(-c2ccccc2F)c(-c2ccnc3ccccc23)s1
5. CCc1nc(-c2cccc(C)c2)c(-c2ccncc2)s1
6. O=C(Nc1n[nH]c2cc(-c3ccccc3F)ccc12)C1CC1
7. Cc1cccc(-c2cc(-c3c[nH]nc3-c3ccccn3)ccn2)c1
8. Cc1c(Cn2c(C)nn3c(=O)cc(N4CCO[C@H](C)C4)nc23)cccc1C(F)(F)F

Result:
[0, 2, 0, 3, 29, 0, 0, 0]

Batch of 6 molecules: report %Inh for each.
1. Cc1nc(N(C)[C@H]2CN(C(=O)CC#N)CC[C@H]2C)c2cc[nH]c2n1
2. COc1cc2ncn(-c3cc(OCc4ccncc4Br)c(C(N)=O)s3)c2cc1OC
3. COc1ccc(-c2cc3c(C)nc(N)nc3n([C@H]3CC[C@H](OCCO)CC3)c2=O)cn1
4. COc1cc(OC)cc(-c2cc3cnc(N)nc3nc2NC(=O)NC(C)(C)C)c1
5. COc1ccc(-c2coc3ccc(-c4nnc(SCc5cccc(C#N)c5)o4)cc23)cc1
6. COc1cccc(-n2cnc3c(N)ncnc32)c1

Result:
1. 0
2. 2
3. 0
4. 0
5. 17
6. 24

Batch of 7 molecules: report %Inh for each.
1. O=C(NCc1cccs1)c1cc(C(=O)c2c(Cl)cccc2Cl)c[nH]1
2. CC(C)(C)c1ccc(C(=O)Nc2cn3cc(-c4ccccc4)ccc3n2)cc1
3. CCS(=O)c1ccc(-c2coc3ccc(-c4nnc(C)o4)cc23)cc1 (stereo not shown)
4. COc1cccc(C2=C(N(C)c3ccccc3)C(=O)NC2=O)c1
5. Nc1n[nH]c2nnc(-c3ccccc3)c(-c3ccccc3)c12
6. CCc1ccc(-c2ccc3c(c2)-c2nn(C)cc2S(=O)(=O)N3C)cc1
7. O=C(Nc1n[nH]c2nc(-c3ccccc3)c(Br)cc12)C1CC1

Result:
[0, 19, 11, 0, 0, 0, 0]

Batch of 5 molecules: report %Inh for each.
1. COc1cc2ncn(-c3cc(OCc4ccc(S(C)(=O)=O)cc4)c(C(N)=O)s3)c2cc1OC
2. COC(=O)c1c(-c2ccccc2)c2cc(Br)ccc2c(=O)n1Cc1ccc(NC(=O)CCC(=O)O)cc1
3. COc1cc(Nc2ccnc3ccc(C(F)(F)F)cc23)cc(OC)c1OC
4. O=c1cc(N2CCOCC2)nc2n(Cc3ccc(F)c(Cl)c3)ccn12
5. Cl.c1ccc(Cn2cnc3cc(Nc4ncnc5ccccc45)ccc32)cc1

Result:
1. 0
2. 3
3. 0
4. 19
5. 0

Batch of 5 molecules: report %Inh for each.
1. Cn1c(=O)c(F)c(Nc2ccc(I)cc2F)c2c(=O)n(OC[C@H](O)CO)cnc21
2. CCC(=O)c1c(-c2ccccc2)c2cc(Cl)ccc2c(=O)n1Cc1ccc(C(=O)O)cc1
3. FC(F)(F)c1ccc(-c2ncn(CCCN3CCOCC3)c2-c2ccncc2)cc1
4. Cc1cc(Nc2nc(-c3cccc(C)n3)nc3ccccc23)ccn1
5. Nc1nccc2scc(-c3ccc4c(c3)CCN4C(=O)Cc3ccccc3)c12

Result:
0
0
13
0
3
